// provenance: the supplement of paper PMC9112550

# Test system: Escherichia coli TOP10;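 also: peptides expressed intracellularly from a pBAD plasmid library in pooled LB shake-flask culture, induced with 0.3% L-arabinose, DNA abundance read by NGS, three biological replicates, DESeq2 with apeglm shrinkage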
# PROCEDURE_TEXT: shrunken log2 fold change of peptide-encoding DNA abundance (4.5 h post-induction vs induction); higher = less antimicrobial activity (less host growth inhibition)
# EXPERIMENTAL_CONDITIONS: time post-induction: 4.5 h; library: site-saturation at positions 5, 18, 19, 20
The threshold is inclusive: shrunken log2 fold change of exactly -0.2 counts as 1; values below receive -1.

- RRIRMRPPRLPRPRPRPKYRPRP: 1
- RRIRFRPPRLPRPRPRPGRSPRP: 1
- RRIRHRPPRLPRPRPRPISAPRP: 1
- RRIRKRPPRLPRPRPRPFWPPRP: 1
- RRIRFRPPRLPRPRPRPKEVPRP: 1
- RRIRNRPPRLPRPRPRPADMPRP: 1
- RRIRWRPPRLPRPRPRPGFVPRP: 1
- RRIRDRPPRLPRPRPRPGALPRP: 1
- RRIRERPPRLPRPRPRPSHKPRP: -1
- RRIRSRPPRLPRPRPRPGHTPRP: 1
- RRIRYRPPRLPRPRPRPQVIPRP: 1
- RRIRLRPPRLPRPRPRPKLEPRP: -1
- RRIRMRPPRLPRPRPRPWAGPRP: 1
- RRIRFRPPRLPRPRPRPNISPRP: -1
- RRIRPRPPRLPRPRPRPVTCPRP: -1
- RRIRRRPPRLPRPRPRPNECPRP: 1
- RRIRPRPPRLPRPRPRPGMPPRP: 1
- RRIRKRPPRLPRPRPRPFWIPRP: -1
- RRIRYRPPRLPRPRPRPMVRPRP: 1
- RRIRHRPPRLPRPRPRPHKYPRP: -1
- RRIRSRPPRLPRPRPRPLCHPRP: 1
- RRIRLRPPRLPRPRPRPDFTPRP: 1
- RRIRNRPPRLPRPRPRPQVTPRP: 1
- RRIRARPPRLPRPRPRPCLEPRP: 1
- RRIRSRPPRLPRPRPRPDHPPRP: 1
- RRIRRRPPRLPRPRPRPIPVPRP: 1
- RRIRVRPPRLPRPRPRPCAYPRP: -1
- RRIRSRPPRLPRPRPRPITHPRP: -1
- RRIRARPPRLPRPRPRPPQHPRP: 1
- RRIRKRPPRLPRPRPRPYLLPRP: -1
- RRIRGRPPRLPRPRPRPQAHPRP: 1
- RRIRYRPPRLPRPRPRPPLAPRP: 1
- RRIRNRPPRLPRPRPRPNQSPRP: 1
- RRIRRRPPRLPRPRPRPLDPPRP: 1
- RRIRTRPPRLPRPRPRPYKLPRP: -1
- RRIRMRPPRLPRPRPRPSWWPRP: 1
- RRIRWRPPRLPRPRPRPDEYPRP: 1
- RRIRYRPPRLPRPRPRPSTTPRP: -1
- RRIRARPPRLPRPRPRPTHGPRP: 1
- RRIRTRPPRLPRPRPRPQQVPRP: -1
